system: Bacillus subtilis; assay: cleaved RNA product abundance (RNA/gDNA barcode ratio) relative to median wild-type variant (ratio to wild type); higher = more accumulation of the downstream cleavage product; conditions: experiment (reporter, strain, medium): exp 8a: truncated aprE reporter, strain BJT201 with 2% xylose (RNase J1 expressed); cleavage site: glnRA (positions -5 to +31 mutated)
// label = Fulfilled if cleaved RNA product abundance is not less than 0.4, otherwise Not fulfilled

As a guide, the following entries are already answered.
residue_codes=CGACATGTCCCGCTTCTTTCATTAATCGGTTATCAACTGTTTTGCTATATACATTTACCTTTTAAGAGGAGGAAT target_under_test="Bacillus subtilis" category="Not fulfilled"
residue_codes=CGACATGTCCCGCTTCTTTCATTAATCCGATAGCAACTGTTTTGCTATTTACATTTACCTTTTAAGAGGAGGAAT target_under_test="Bacillus subtilis" category="Not fulfilled"
residue_codes=CGACATGTCCCGCTTCTTTCATTAATCCGTTAGAAAATGTTTTGCTATAAACATTTACCTTTTAAGAGGAGGAAT target_under_test="Bacillus subtilis" category="Not fulfilled"
residue_codes=CGACATGTCCCGCTTCTTTCATTACTCCGTTAGCAACTGTTTTGCTATATACATTTACTTTTTAAGAGGAGGAAT target_under_test="Bacillus subtilis" category=Fulfilled
residue_codes=CGACATGTCCCGCTTCTTTCATTAATCCGTTAGCAACTGTATTGCTATATACATTTACATTTTAAGAGGAGGAAT target_under_test="Bacillus subtilis" category=Fulfilled

Request: Test whether the sequence CGACATGTCCCGCTTCTTTCATTAATCCTTTAGCAACTGTTTTACTATATACATTTACCTTTTAAGAGGAGGAAT records cleaved RNA product abundance of 0.4 or higher.
Result: Fulfilled

Request: Has CGACATGTCCCGCTTCTTTCATTAATCCGTTAGCAATTGTTTTGCTATATACATTCACCTTTTAAGAGGAGGAAT a recorded cleaved RNA product abundance greater than or equal to 0.4?
Result: Fulfilled

Request: Does cleaved RNA product abundance meet or surpass 0.4 for CGACATGTCCCGCTTCTTTCATTAATCCGTTAGCAACTGTTTTGCTAAATACATTTTCCTTTTAAGAGGAGGAAT ?
Result: Not fulfilled

###

test system: Bacillus subtilis; experiment: cleaved RNA product abundance (RNA/gDNA barcode ratio) relative to median wild-type variant (ratio to wild type); higher = more accumulation of the downstream cleavage product; settings: experiment (reporter, strain, medium): exp 4a: truncated aprE reporter, strain BJT201 with 2% xylose (RNase J1 expressed); cleavage site: cggR-gapA (positions -7 to +36 mutated)
cleaved RNA product abundance values for the sequences below.
Note: the reply should be a number with no unit written.

Known results for sequences:
residue_codes=ACAGACGAAGGAGCCGCAAAGATGTTATAAAGGGATGAATAATCCCTCAATATAAATATCTCTCACTTATTTAAA measure="cleaved RNA product abundance" value_observed=0.441
residue_codes=ACAGACGAAGGAGCCGCAAAGAAGTTATTAAGGGAGGAATAATCCCTCAAAATAAATATCTCTCACTTATTTAAA measure="cleaved RNA product abundance" value_observed=0.284

// cleaved RNA product abundance value for ACAGACGAAGGAGCCGCAAAGAAGTTATCAAGAGATGAATAATCCCTCAATATAAATATCTCTCACTTATTTAAA : 0.116

// cleaved RNA product abundance value for ACAGACGAAGGAGCCGCAAAGAAGTTATTAAGGGATGAATACTTCCTCAATATAAATATCTCTCACTTATTTAAA : 0.247

// recorded cleaved RNA product abundance for ACAGACGAAGGAGCCGCAAAAAAGTTATCAAGGGATGAATAATCCCTCAATATAAATATCTCTCACTTATTTAAA : 0.507

# cleaved RNA product abundance of ACAGACGAAGGAGCCGCAAAGAAGTTATCAAGGGATGAATAATCCCTCAATATAAATGTCTCTCACTTATTTAAA = 0.206

Input ACAGACGAAGGAGCCGCAAAGAAGATATTAAGGGATGAATAATCCCTCAAAATAAATATCTCTCACTTATTTAAA . Output cleaved RNA product abundance: 0.205
